Source listed as patent US9499495B2.

Tested on: pERK in A375 cells
Assay: In Cell Western (ICW) assay, pERK in A375 cells
Format: cell-based
Conditions: Homo sapiens, A-375, 3 h treatment
pIC50: −log10 of the molar value.

compound-structure-string	assayed-system	pIC50
COc1cc(-c2cccc(NS(=O)(=O)CCCF)c2F)cc2c(N3CCOCC3)nc(-c3cnc(N)cc3C(F)(F)F)nc12	pERK in A375 cells	7.00 to 9.00
CCOc1cc(-c2cccc(NS(=O)(=O)CCCF)c2F)cc2c(N3CCOCC3)nc(-c3cnc(N)nc3)nc12	pERK in A375 cells	7.00 to 9.00
Cc1cc(N)ncc1-c1nc(N2CCOCC2)c2nc(-c3cccc(NS(=O)(=O)CCCF)c3F)ccc2n1	pERK in A375 cells	7.00 to 9.00
COc1cc(-c2c(F)ccc(NS(=O)(=O)c3cc(F)ccc3F)c2F)cc2c(N3CCOCC3)nc(-c3ccc(N)nc3)nc12	pERK in A375 cells	7.00 to 9.00
Nc1ccc(-c2nc(N3CCOCC3)c3cc(-c4cccc(NS(=O)(=O)CCCF)c4F)cc(N4CCCC4)c3n2)cn1	pERK in A375 cells	6.00 to 7.00
COc1cc(-c2cccc(NS(=O)(=O)c3cc(F)ccc3F)c2F)cc2c(N3CCOCC3)nc(-c3ccc(N)nc3)nc12	pERK in A375 cells	7.00 to 9.00
C[C@H]1COCCN1c1nc(-c2cnc(N)nc2)nc2ccc(-c3cccc(NS(=O)(=O)CCCF)c3F)nc12	pERK in A375 cells	6.00 to 7.00

----------
System: PI3Kα (Homo sapiens) | Read-out: IC50
Sequence (P42336 whole entry, species assumed): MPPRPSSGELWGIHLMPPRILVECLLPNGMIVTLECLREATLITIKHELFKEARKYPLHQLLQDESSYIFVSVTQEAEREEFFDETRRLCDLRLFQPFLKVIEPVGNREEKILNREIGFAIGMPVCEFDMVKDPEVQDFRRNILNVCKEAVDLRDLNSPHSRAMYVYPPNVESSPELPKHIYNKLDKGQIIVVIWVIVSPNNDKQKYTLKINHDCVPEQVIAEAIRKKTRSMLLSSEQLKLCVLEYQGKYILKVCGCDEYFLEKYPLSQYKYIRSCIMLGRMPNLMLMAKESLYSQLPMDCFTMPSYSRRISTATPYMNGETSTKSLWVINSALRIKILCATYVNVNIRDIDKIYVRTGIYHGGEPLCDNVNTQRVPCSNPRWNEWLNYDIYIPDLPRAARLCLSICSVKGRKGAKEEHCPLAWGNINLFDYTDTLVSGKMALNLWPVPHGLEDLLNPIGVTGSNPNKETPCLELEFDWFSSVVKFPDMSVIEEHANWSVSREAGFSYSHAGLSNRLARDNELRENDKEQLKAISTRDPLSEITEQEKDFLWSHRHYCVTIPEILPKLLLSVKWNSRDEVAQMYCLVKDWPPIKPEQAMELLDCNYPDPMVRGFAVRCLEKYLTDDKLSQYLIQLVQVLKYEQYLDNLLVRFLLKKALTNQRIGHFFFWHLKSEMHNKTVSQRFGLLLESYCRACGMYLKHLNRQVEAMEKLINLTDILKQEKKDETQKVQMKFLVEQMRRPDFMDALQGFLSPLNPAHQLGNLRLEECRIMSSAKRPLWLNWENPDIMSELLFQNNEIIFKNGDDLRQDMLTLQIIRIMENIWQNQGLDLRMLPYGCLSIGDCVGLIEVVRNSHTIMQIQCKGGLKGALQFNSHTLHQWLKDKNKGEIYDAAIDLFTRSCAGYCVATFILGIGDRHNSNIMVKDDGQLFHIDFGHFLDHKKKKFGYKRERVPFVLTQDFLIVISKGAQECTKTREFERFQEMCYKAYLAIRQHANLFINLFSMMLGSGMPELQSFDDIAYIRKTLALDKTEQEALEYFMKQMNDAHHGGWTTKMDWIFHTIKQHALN
Sequence (P27986 whole entry partner, species assumed): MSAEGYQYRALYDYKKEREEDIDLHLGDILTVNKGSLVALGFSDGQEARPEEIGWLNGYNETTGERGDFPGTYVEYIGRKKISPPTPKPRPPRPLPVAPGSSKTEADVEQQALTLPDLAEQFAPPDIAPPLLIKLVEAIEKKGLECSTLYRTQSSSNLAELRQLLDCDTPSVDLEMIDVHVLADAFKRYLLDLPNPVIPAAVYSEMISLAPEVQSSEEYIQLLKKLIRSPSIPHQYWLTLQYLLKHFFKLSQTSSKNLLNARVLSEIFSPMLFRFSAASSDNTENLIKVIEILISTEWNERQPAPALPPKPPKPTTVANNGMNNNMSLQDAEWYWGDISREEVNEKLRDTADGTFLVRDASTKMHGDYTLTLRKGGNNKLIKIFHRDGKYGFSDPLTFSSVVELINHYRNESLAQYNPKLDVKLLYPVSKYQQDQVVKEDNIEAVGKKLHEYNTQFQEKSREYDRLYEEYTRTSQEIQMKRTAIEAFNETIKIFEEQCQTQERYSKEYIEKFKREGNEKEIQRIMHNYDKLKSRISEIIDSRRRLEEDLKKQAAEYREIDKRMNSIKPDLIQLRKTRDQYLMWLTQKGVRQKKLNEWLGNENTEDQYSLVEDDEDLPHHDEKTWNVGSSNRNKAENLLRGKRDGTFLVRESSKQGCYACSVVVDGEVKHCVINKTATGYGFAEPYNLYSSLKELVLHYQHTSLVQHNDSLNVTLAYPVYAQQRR

compound-structure-string	IC50
CNc1ncc(-c2nc(N3CCOCC3)c3nc(-c4cccc(NS(=O)(=O)CCCF)c4F)ccc3n2)cn1	1 to 100 nM
C[C@@H]1COCCN1c1nc(-c2cnc(N)nc2)nc2ccc(-c3cccc(NS(=O)(=O)CCCF)c3F)nc12	1 to 100 nM
Nc1cc(F)c(-c2nc(N3CCOCC3)c3nc(-c4cccc(NS(=O)(=O)CCCF)c4F)ccc3n2)cn1	1 to 100 nM
CCCS(=O)(=O)Nc1cccc(-c2cc(OC)c3nc(-c4cnc(N)cc4C(F)(F)F)nc(N4CCOCC4)c3c2)c1F	100 to 1000 nM
COc1cc(-c2c(F)ccc(NS(=O)(=O)CCCF)c2F)cc2c(N3CCOCC3)nc(-c3ccc(N)nc3)nc12	100 to 1000 nM
Cc1cc(-c2cccc(NS(=O)(=O)CCCF)c2F)cc2c(N3CCOCC3)nc(-c3cnc(N)nc3)nc12	100 to 1000 nM
C[C@H]1COCCN1c1nc(-c2ccc(N)nc2)nc2ccc(-c3cccc(NS(=O)(=O)CCCF)c3F)nc12	1 to 100 nM
Cc1cc(N)ncc1-c1nc(N2CCOCC2)c2nc(-c3cccc(NS(=O)(=O)CCCF)c3F)ccc2n1	1 to 100 nM
Cc1cc(N)ncc1-c1nc(N2CCOC[C@@H]2C)c2nc(-c3cccc(NS(=O)(=O)CCCF)c3F)ccc2n1	1 to 100 nM
CCCS(=O)(=O)Nc1cccc(-c2ccc3nc(-c4cnc(N)nc4)nc(N4CCOCC4)c3n2)c1F	1 to 100 nM
C[C@@H]1COCCN1c1nc(-c2cnc(N)cc2C(F)(F)F)nc2ccc(-c3cccc(NS(=O)(=O)CCCF)c3F)nc12	100 to 1000 nM
Nc1ccc(-c2nc(N3CCOCC3)c3nc(-c4cccc(NS(=O)(=O)CCCF)c4F)ccc3n2)cn1	1 to 100 nM
COc1cc(-c2cccc(NS(=O)(=O)CCCF)c2F)cc2c(N3CCOC[C@H]3C)nc(-c3cnc(N)cc3F)nc12	1000 to 10000 nM
O=S(=O)(CCCF)Nc1cccc(-c2ccc3nc(-c4ccc(NCCO)nc4)nc(N4CCOCC4)c3n2)c1F	100 to 1000 nM
